Ref: ChEMBL document CHEMBL1142719

pKi: −log10 of the molar value.
These records show pKi for Adenosine receptor A3 (Rattus norvegicus, UniProt P28647).
Reported property: pKi

> print(dat)
                           structure.string                               test.system  comparative.sign  endpoint.result
1  CNC(=O)[C@]12C[C@@H]1[C@@H](n1cnc3c(NCC(c4ccccc4)c4ccccc4)nc(Cl)nc31)[C@H](O)[C@@H]2O  Adenosine receptor A3 (Rattus norvegicus, UniProt P28647)                 =             8.00
2  OC[C@H]1O[C@@H](n2cnc3c(NCc4cccc(Cl)c4)ncnc32)[C@H](O)[C@@H]1O  Adenosine receptor A3 (Rattus norvegicus, UniProt P28647)                 =             7.46
3  CNC(=O)[C@]12C[C@@H]1[C@@H](n1cnc3c(NCc4cccc(Br)c4)nc(Cl)nc31)[C@H](O)[C@@H]2O  Adenosine receptor A3 (Rattus norvegicus, UniProt P28647)                 =             9.12
4  CNC(=O)[C@]12C[C@@H]1[C@@H](n1cnc3c(NCc4cc(Cl)ccc4OCc4ccccc4)nc(Cl)nc31)[C@H](O)[C@@H]2O  Adenosine receptor A3 (Rattus norvegicus, UniProt P28647)                 =             7.96
5  OC[C@H]1O[C@@H](n2cnc3c(NCC(c4ccccc4)c4ccccc4)ncnc32)[C@H](O)[C@@H]1O  Adenosine receptor A3 (Rattus norvegicus, UniProt P28647)                 =             6.27
6  CNc1nc(N)nc2c1ncn2[C@@H]1O[C@H](CO)[C@@H](O)[C@H]1O  Adenosine receptor A3 (Rattus norvegicus, UniProt P28647)                 <             5.00
7  CNC(=O)[C@@]12C[C@@H]1[C@@H](n1cnc3c(NCc4cccc(Cl)c4)nc(Cl)nc31)[C@H](O)[C@@H]2O  Adenosine receptor A3 (Rattus norvegicus, UniProt P28647)                 =             9.00

====

Biological target: Adenosine receptor A3 (Homo sapiens) (UniProt P0DMS8)
Sequence (P0DMS8 whole entry): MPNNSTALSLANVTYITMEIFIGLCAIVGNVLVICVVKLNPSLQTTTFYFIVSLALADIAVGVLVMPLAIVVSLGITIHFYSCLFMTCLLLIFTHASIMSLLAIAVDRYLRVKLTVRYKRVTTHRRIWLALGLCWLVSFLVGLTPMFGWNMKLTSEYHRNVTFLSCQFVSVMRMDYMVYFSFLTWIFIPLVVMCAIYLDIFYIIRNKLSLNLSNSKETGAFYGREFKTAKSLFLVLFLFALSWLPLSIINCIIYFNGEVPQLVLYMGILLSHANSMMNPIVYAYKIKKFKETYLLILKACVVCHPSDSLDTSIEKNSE
Experiment: Relative activation of human Adenosine A3 receptor expressed in CHO cells at 10 uM treatment compared to 10 uM Cl-IB-MECA
Assay type: functional, cell-based
Activation values for the compounds below.
Reported property: Activation (%)

> print(dat)
                                    compound  endpoint.result
 1  OC[C@H]1O[C@@H](n2cnc3c(NCc4cccnc4)ncnc32)[C@H](O)[C@@H]1O              100
 2  OC[C@H]1O[C@@H](n2cnc3c(NCC(c4ccccc4)c4ccccc4)ncnc32)[C@H](O)[C@@H]1O                0
 3  CNc1nc(N)nc2c1ncn2[C@@H]1O[C@H](CO)[C@@H](O)[C@H]1O               98
 4  OC[C@@]12C[C@@H]1[C@@H](n1cnc3c(NCc4cccc(I)c4)nc(Cl)nc31)[C@H](O)[C@@H]2O                3
 5  CNC(=O)[C@]12C[C@@H]1[C@@H](n1cnc3c(NCc4cccc(Cl)c4)nc(SC)nc31)[C@H](O)[C@@H]2O              100
 6  Cc1ccccc1CNc1ncnc2c1ncn2[C@@H]1O[C@H](CO)[C@@H](O)[C@H]1O              100
 7  OC[C@H]1O[C@@H](n2cnc3c(NCc4cccc(I)c4)nc(Cl)nc32)[C@H](O)[C@@H]1O                0
 8  CNC(=O)[C@@]12C[C@@H]1[C@@H](n1cnc3c(NC)nc(Cl)nc31)[C@H](O)[C@@H]2O              104
 9  CNC(=O)[C@]12C[C@@H]1[C@@H](n1cnc3c(NCc4cccc(Br)c4)nc(Cl)nc31)[C@H](O)[C@@H]2O              100
10  CNC(=O)[C@]12C[C@@H]1[C@@H](n1cnc3c(NCc4cc(Cl)ccc4OCc4ccccc4)nc(Cl)nc31)[C@H](O)[C@@H]2O              110
11  CNC(=O)[C@@]12C[C@@H]1[C@@H](n1cnc3c(NCc4cccc(I)c4)nc(Cl)nc31)[C@H](O)[C@@H]2O              100
12  OC[C@H]1O[C@@H](n2cnc3c(NCc4cccc(Cl)c4)ncnc32)[C@H](O)[C@@H]1O               80
13  CNC(=O)[C@]12C[C@@H]1[C@@H](n1cnc3c(NCC(c4ccccc4)c4ccccc4)nc(Cl)nc31)[C@H](O)[C@@H]2O              107
14  OC[C@H]1O[C@@H](n2cnc3c(NCc4cccc(I)c4)ncnc32)[C@H](O)[C@@H]1O               46
15  OC[C@H]1O[C@@H](n2cnc3c(NC4CC4c4ccccc4)ncnc32)[C@H](O)[C@@H]1O (stereo partly specified)              101
16  CNC(=O)[C@]12C[C@@H]1[C@@H](n1cnc3c(NCc4cc(C#CCO)ccc4Cl)nc(Cl)nc31)[C@H](O)[C@@H]2O              108
